Target: Sodium-dependent serotonin transporter (Homo sapiens) (UniProt P31645)
Sequence (P31645 whole entry, looked up): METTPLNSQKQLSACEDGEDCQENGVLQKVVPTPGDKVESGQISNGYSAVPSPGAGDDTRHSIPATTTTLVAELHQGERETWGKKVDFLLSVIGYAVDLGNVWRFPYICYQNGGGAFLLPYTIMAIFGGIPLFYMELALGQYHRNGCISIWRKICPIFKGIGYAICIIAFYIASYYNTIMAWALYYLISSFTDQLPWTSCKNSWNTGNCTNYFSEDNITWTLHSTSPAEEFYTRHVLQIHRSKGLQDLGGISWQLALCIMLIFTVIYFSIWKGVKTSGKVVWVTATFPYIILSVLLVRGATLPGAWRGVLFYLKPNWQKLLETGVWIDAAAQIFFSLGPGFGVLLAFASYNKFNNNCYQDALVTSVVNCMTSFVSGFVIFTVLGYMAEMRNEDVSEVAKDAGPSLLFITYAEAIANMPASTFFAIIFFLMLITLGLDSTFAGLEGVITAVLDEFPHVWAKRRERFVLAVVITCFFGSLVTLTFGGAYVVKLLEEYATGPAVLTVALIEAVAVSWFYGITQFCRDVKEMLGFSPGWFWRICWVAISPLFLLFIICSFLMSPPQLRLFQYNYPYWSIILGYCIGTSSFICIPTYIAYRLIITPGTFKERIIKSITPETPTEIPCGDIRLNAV
Assay: Displacement of [3H]5-HT from SERT at 100 nM
Below, each entry is listed alongside its reported inhibition.
Kindly answer with a numeric value in %, unit omitted.

As a guide, the following entries are already answered.
CCOc1ccccc1C[C@@](O)(c1ccccc1)[C@@H]1CNCCO1 :: 2.4
O[C@](Cc1ccccc1-c1ccccc1)(c1ccccc1)[C@@H]1CNCCO1 (single isomer, unassigned) :: 3
COc1ccc(C[C@@](O)(c2ccccc2)[C@@H]2CNCCO2)cc1 :: 4.3
O[C@](Cc1ccccc1Br)(c1ccccc1)[C@@H]1CNCCO1 :: 13

Recorded inhibition for "CC(C)Oc1ccccc1C[C@@](O)(c1ccccc1)[C@@H]1CNCCO1" on Sodium-dependent serotonin transporter (Homo sapiens) (UniProt P31645) was 2.7
